Task for the reader: assign each of the following compounds its reported IC50.
test.details: Inhibition of integrin alphaV receptor-mediated adhesion of human PC3 cells to vitronectin after 1 hr by toluidine blue staining
One number for each entry, in µM.

Field: example entries. Status: answers known.
compound.string	value
NNC(=O)COCCOCCOCC(=O)NCc1ccc([C@@H]2NC(=O)[C@@H](Cc3ccccc3)NC(=O)[C@H](CC(=O)O)NC(=O)CNC(=O)[C@H](CCCN=C(N)N)NC2=O)cc1	15.6
CC[C@@]1(O)C(=O)OCc2c1cc1n(c2=O)Cc2c-1nc1ccccc1c2/C=N/OCCNC(=O)COCCOCCOCC(=O)NCc1ccc(C[C@@H]2NC(=O)[C@@H](Cc3ccccc3)NC(=O)[C@H](CC(=O)O)NC(=O)CNC(=O)[C@H](CCCN=C(N)N)NC2=O)cc1	8.3

Look at this compound and give its reported IC50. CC[C@@]1(O)C(=O)OCc2c1cc1n(c2=O)Cc2c-1nc1ccccc1c2CCC=NNC(=O)COCCOCCOCC(=O)NCc1ccc(C[C@@H]2NC(=O)[C@@H](Cc3ccccc3)NC(=O)[C@H](CC(=O)O)NC(=O)CNC(=O)[C@H](CCCN=C(N)N)NC2=O)cc1
11

----------
test.details: Inhibition of integrin alphaV receptor-mediated adhesion of human PC3 cells to vitronectin after 1 hr by toluidine blue staining
experimental.readout: IC50 (µM)
Numbers only, in µM.

molecule	value
NC(N)=NCCC[C@@H]1NC(=O)C(c2ccc(CNC(=O)COCCOCCOCC(=O)O)cc2)NC(=O)[C@@H](Cc2ccccc2)NC(=O)[C@H](CC(=O)O)NC(=O)CNC1=O (stereo partly drawn)	18.8
CC[C@@]1(O)C(=O)OCc2c1cc1n(c2=O)Cc2c-1nc1ccccc1c2/C=N\OCCNC(=O)CCC[C@@H]1NC(=O)[C@@H](Cc2ccccc2)NC(=O)[C@H](CC(=O)O)NC(=O)CNC(=O)[C@H](CCCN=C(N)N)NC1=O	5.8

# evaluate next
Look at this molecule and give its reported IC50. CC[C@@]1(O)C(=O)OCc2c1cc1n(c2=O)Cc2c-1nc1ccccc1c2C=NNC(=O)COCCOCCOCC(=O)NCc1ccc(C[C@@H]2NC(=O)[C@@H](Cc3ccccc3)NC(=O)[C@H](CC(=O)O)NC(=O)CNC(=O)[C@H](CCCN=C(N)N)NC2=O)cc1
4.8

Provenance of the data: BindingDB's records for doi:10.1016/j.bmc.2009.11.019
